This collection of values is drawn from PubChem BioAssay.

ASSAY SUMMARY: basal RPMI8226 viability, no added stimulus, profiling panel, cell-based, calcein-AM fluorescence, 48 h, PK04 Diversity Set (AID 1166);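 also: cells grown under basal conditions without added stimulus; test concentration not given here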
CONDITION CONTEXT: RPMI8226 myeloma viability, higher = more signal
// bucketize z-score: low: < -1; moderate: ≥ -1 and < -0.3; high: ≥ -0.3

COMPOUND	CLASS
C=C(C(=O)CC[C@H](OC(=O)c1ccccc1-c1ccccc1C(=O)O)c1ccc(OCCO)cc1)C(C)C	low
CC(=O)NCCCC[C@@H]1NC(=O)[C@H]2C[C@@H](C(=O)O)[C@@H](c3cccc(OCCO)c3)N2C1=O	high
COC(=O)[C@@]1(Cc2ccc(F)cc2)[C@H]2c3cc(C(=O)N4CCCC4)n(CCc4c[nH]c5cc(F)ccc45)c3C[C@H]2CN1C(=O)c1ccccc1	low
C=CC[C@]1(C(=O)NCC(O)CO)N=C(c2ccc(OCCCO)cc2)O[C@H]1c1ccccc1CN=[N+]=[N-] (stereo not given in full)	moderate
Cc1ccc(N2C(=O)c3ccccc3[C@@H](C(=O)NCCN3CCOCC3)[C@@H]2c2ccc(CO)cc2)nc1	high
C=CCNC(=O)[C@H]1[C@@H]2C(=O)O[C@@H](c3ccccc3)[C@@H](c3ccccc3)N2[C@@H](c2ccc(O)cc2)[C@]12C(=O)Nc1ccccc12	moderate
O=C1N(Cc2ccccc2)Cc2ccccc2C[C@@]12COC(c1ccc(OCCCO)cc1)=N2	low
COc1c(C)cc(-c2nc(-c3ccccc3)c3c(c2C)CO[Si]3(C(C)C)C(C)C)cc1C	moderate
COc1ccc(CCNC(=O)[C@@H]2c3ccccc3C(=O)N(Cc3cc(F)cc(C(F)(F)F)c3)[C@H]2c2ccc(CO)cc2)cc1	high
O=C1O[C@H](c2ccccc2)[C@H](c2ccccc2)N2[C@H]1[C@@H](C(=O)N1CCCCCCC1)[C@]1(C(=O)Nc3ccc(C#CCCO)cc31)[C@H]2c1ccc(O)cc1	high
Cc1cccc([C@H]2C[C@H]3C(Br)=C[C@@]2(CO)C(=O)[C@]32CO2)c1	moderate
CCOC(=O)C[C@H]1[C@H](OC(=O)c2ccc(-c3ccccc3)cc2)[C@@H](NC(=O)c2ccc(-c3ccccc3)cc2)c2cc(OCCCO)ccc2N1C(=O)c1ccccc1	moderate
C=C(CC1([C@@H](NP(=O)(c2ccccc2)c2ccccc2)[C@H]2C[C@@H]2CCCC)CC1)c1cccc(OC)c1	low
O=C1C[C@@](C(=O)NCC(F)(F)F)(c2ccc([N+](=O)[O-])cc2)[C@@H](c2ccc(CO)cc2I)N1CC12CC3CC(CC(C3)C1)C2	low
